- Measurement target: T1, Recombinant Human FGFR2 alpha (IIIc) Fc Chimera Protein, CF (R&D systems, 712-FR-050) (human, UniProt P21802 22-377)
- T1 construct: bought; not shown: Fc part of the chimera
- T1 sequence (P21802 22-377, change not shown): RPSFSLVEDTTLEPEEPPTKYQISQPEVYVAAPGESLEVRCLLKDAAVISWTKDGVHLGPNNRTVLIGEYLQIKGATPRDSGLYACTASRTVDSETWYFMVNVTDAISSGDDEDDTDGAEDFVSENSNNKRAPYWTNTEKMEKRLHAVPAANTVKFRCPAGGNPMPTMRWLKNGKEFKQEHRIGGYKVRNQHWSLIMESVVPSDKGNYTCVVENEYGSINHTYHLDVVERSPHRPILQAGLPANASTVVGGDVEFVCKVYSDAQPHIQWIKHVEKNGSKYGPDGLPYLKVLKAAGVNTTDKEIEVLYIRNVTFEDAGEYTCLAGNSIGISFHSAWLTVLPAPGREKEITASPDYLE
- Test method notes: ELISA on plate-bound FGFR2-Fc
Bridge positions count the residues as written; N and C are the ends. Ends that are not written are not given here. COCH2 = acetyl group that carries the bridge
Observation type: ELISA luminescence signal at 10 nmol/L peptide, relative to SEQ ID NO: 47 (=1)

Some binders with recorded ELISA luminescence signal at 10 nmol/L peptide, relative to SEQ ID NO: 47 (=1):
Binder	Result
LCYLYQYLYQAK(COCH2)F (thioether 2-12) [cyclic peptide SEQ ID NO: 365]	0.1 to 0.5 ratio
YCEENRLDPEQYQYFIYFK(COCH2)Y (thioether 2-19 (inferred)) [cyclic peptide SEQ ID NO: 193]	0.1 to 0.5 ratio
YCEENYLDPEQYQYFIYFK(COCH2)N (thioether 2-19 (inferred)) [cyclic peptide SEQ ID NO: 314]	≥ 0.7 ratio

Write down ELISA luminescence signal at 10 nmol/L peptide, relative to SEQ ID NO: 47 (=1) measured for item VCQQDNYFYPQQWFFFVHYK(COCH2)H (thioether 2-20) [cyclic peptide SEQ ID NO: 400] ≥ 0.7 ratio

Please give measured ELISA luminescence signal at 10 nmol/L peptide, relative to SEQ ID NO: 47 (=1) of the following entry: DCFINELQYFYIQQYKK (not fully specified; thioether ring (C)-(K(acetyl))) [cyclic peptide SEQ ID NO: 109] 0.5 to 0.7 ratio

Identify the reported ELISA luminescence signal at 10 nmol/L peptide, relative to SEQ ID NO: 47 (=1) for the following entry. YCEENYLWPEQYQYFIYFK(COCH2)Y (thioether 2-19 (inferred)) [cyclic peptide SEQ ID NO: 213] 0.5 to 0.7 ratio

Tell us which ELISA luminescence signal at 10 nmol/L peptide, relative to SEQ ID NO: 47 (=1) value is on record for QCLIQDLYAYIFK(COCH2)L (thioether 2-13) [cyclic peptide SEQ ID NO: 368] 0.1 to 0.5 ratio

Give the reported ELISA luminescence signal at 10 nmol/L peptide, relative to SEQ ID NO: 47 (=1) for this binder. YCTDNYIDDIQFWYLFLYK(COCH2)Q (thioether 2-19) [cyclic peptide SEQ ID NO: 107] 0.5 to 0.7 ratio

Quote ELISA luminescence signal at 10 nmol/L peptide, relative to SEQ ID NO: 47 (=1) reported for YCEENYLDIEQYQYFIYFK(COCH2)Y (thioether 2-19 (inferred)) [cyclic peptide SEQ ID NO: 223] please. ≥ 0.7 ratio

Fill in ELISA luminescence signal at 10 nmol/L peptide, relative to SEQ ID NO: 47 (=1) for record KCPQNFINPVQWRYFQHYKN (thioether ring (C)-(K(acetyl))) [cyclic peptide SEQ ID NO: 47] ≥ 0.7 ratio
